# system: human renal renin (Homo sapiens, UniProt P00797)
# Construct: human renal renin, free from acid proteolytic activity; from tissue; host or cells: human kidney (from the word 'renal')
# Sequence (P00797 67-406): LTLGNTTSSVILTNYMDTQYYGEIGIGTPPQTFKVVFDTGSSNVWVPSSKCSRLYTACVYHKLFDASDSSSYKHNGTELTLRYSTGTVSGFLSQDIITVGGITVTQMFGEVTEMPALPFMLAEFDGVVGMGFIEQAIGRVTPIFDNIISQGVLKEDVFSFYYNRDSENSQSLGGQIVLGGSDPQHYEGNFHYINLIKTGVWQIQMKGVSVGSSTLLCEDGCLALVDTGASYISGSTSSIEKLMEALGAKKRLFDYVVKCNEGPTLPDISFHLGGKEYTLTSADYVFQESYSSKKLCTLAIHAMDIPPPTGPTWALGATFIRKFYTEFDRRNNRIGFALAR
# experiment_summary: In vitro inhibition of human renal renin (angiotensin I formed, measured by radioimmunoassay)
# Assay type: biochemical
# settings: at 10^-5 M compound; human renin substrate (angiotensinogen), 37° C., pH 6.0
For each record, write down the corresponding Inhibition.
Answers are plain numbers, in %.

{"compound": "CC(C)CC(NC(=O)C(C)NC(=O)C(Cc1ccccc1)NC(=O)OC(C)(C)C)C(O)CCc1ccccc1 (centres unmarked) [Example 1C]", "Inhibition (%)": 35}
{"compound": "CC(C)CCC(O)C(CC(C)C)NC(=O)C(C)NC(=O)C(Cc1ccccc1)NC(=O)OC(C)(C)C (centres unmarked) [Example 2C]", "Inhibition (%)": 85}
{"compound": "C=CC(C)(C)C(O)C(CC(C)C)NC(=O)C(C)NC(=O)C(Cc1ccccc1)NC(=O)OC(C)(C)C (centres unmarked) [Example 5C]", "Inhibition (%)": 7}
{"compound": "C=CCC(O)C(CC(C)C)NC(=O)C(C)NC(=O)C(Cc1ccccc1)NC(=O)OC(C)(C)C (centres unmarked) [Example 4C]", "Inhibition (%)": 48}

Next compound, Inhibition to be filled in.
Problem: Give reported Inhibition for CC(C)CCC(O)C(CC(C)C)NC(=O)C(Cc1cnc[nH]1)NC(=O)C(Cc1ccccc1)NC(=O)OC(C)(C)C (centres unmarked) [Example 3] (human renal renin (Homo sapiens, UniProt P00797))
Result: 89

Ref: patent US4652551A
